Kindly state viability, T/C for each of the entries shown.
System: 485368-065-R4-J2-PDC spheroids with HUVEC/MSC, viability
assay-summary: Anticancer human tumor 485368-065-R4-J2-PDC patient-derived pancreatic carcinoma cell line growth inhibition [CLK]
particulars: second compound 0.1 µM; first compound 10 µM; hits give low values

Looking up C=CC(=O)N1CCN(c2nc(=O)n(-c3c(C)ccnc3C(C)C)c3nc(-c4c(O)cccc4F)c(F)cc23)C(C)C1 (stereo not drawn) + CNC(=O)c1ccc(Nc2nc(OC3CCCC3)c3c(-c4ccc5nc(C)oc5c4)c[nH]c3n2)c(OC)c1 , I found its viability, T/C recorded as 88.8%

Looking up CC1COCCN1c1cc(C2(S(C)(=N)=O)CC2)nc(-c2ccnc3[nH]ccc23)n1 (stereo not drawn) + CN1CCN(c2cc(C(=O)Nc3cc4cc(-c5cnn(C)c5)ccc4cn3)ccn2)CC1 , I found its viability, T/C recorded as 90.9%

Looking up COC1C=CCC(C)C(C)S(=O)(=O)NC(=O)c2ccc3c(c2)N(CC2CCC21)CC1(CCCc2cc(Cl)ccc21)CO3 (stereo not drawn) + CNC(=O)c1ccc(Nc2nc(OC3CCCC3)c3c(-c4ccc5nc(C)oc5c4)c[nH]c3n2)c(OC)c1 , I found its viability, T/C recorded as 91.3%

* * *

System: 485368-065-R4-J2-PDC spheroids with HUVEC/MSC, viability
assay-summary: Anticancer human tumor 485368-065-R4-J2-PDC cell line growth inhibition [CLK];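 further: spheroids exposed to compounds for seven days; 100% = DMSO vehicle control wells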
particulars: second compound 3.16 µM; first compound 1 µM; hits give low values
Strictly below 70% in viability, T/C: Yes. Otherwise: No.

Does the reported viability, T/C of CC1(C)CCC(CN2CCN(c3ccc(C(=O)NS(=O)(=O)c4ccc(NCC5CCOCC5)c([N+](=O)[O-])c4)c(Oc4cnc5[nH]ccc5c4)c3)CC2)=C(c2ccc(Cl)cc2)C1 + CNC(=O)c1ccc(Nc2nc(OC3CCCC3)c3c(-c4ccc5nc(C)oc5c4)c[nH]c3n2)c(OC)c1 stay below 70%?
No

Does the reported viability, T/C of C#Cc1c(F)ccc2cc(O)cc(-c3ncc4c(N5CC6CCC(C5)N6)nc(OCC56CCCN5CC(F)C6)nc4c3F)c12 (configuration not stated) + CNC(=O)c1ccc(Nc2nc(OC3CCCC3)c3c(-c4ccc5nc(C)oc5c4)c[nH]c3n2)c(OC)c1 stay below 70%?
No

Does the reported viability, T/C of CCCS(=O)(=O)Nc1ccc(F)c(C(=O)c2c[nH]c3ncc(-c4ccc(Cl)cc4)cc23)c1F + CNC(=O)c1ccc(Nc2nc(OC3CCCC3)c3c(-c4ccc5nc(C)oc5c4)c[nH]c3n2)c(OC)c1 stay below 70%?
No

Does the reported viability, T/C of COc1c(OCCCN2CCOCC2)ccc2c3n(c(=NC(=O)c4cnc(N)nc4)nc12)CCN3 + CNC(=O)c1ccc(Nc2nc(OC3CCCC3)c3c(-c4ccc5nc(C)oc5c4)c[nH]c3n2)c(OC)c1 stay below 70%?
Yes

Does the reported viability, T/C of O=C(c1cc(Cc2n[nH]c(=O)c3ccccc23)ccc1F)N1CCN(C(=O)C2CC2)CC1 + CNC(=O)c1ccc(Nc2nc(OC3CCCC3)c3c(-c4ccc5nc(C)oc5c4)c[nH]c3n2)c(OC)c1 stay below 70%?
No

Does the reported viability, T/C of CC(=O)O[C@H]1C(=O)[C@@]2(C)[C@H]([C@H](OC(=O)c3ccccc3)[C@]3(O)C[C@H](OC(=O)[C@H](O)[C@@H](NC(=O)c4ccccc4)c4ccccc4)C(C)=C1C3(C)C)[C@]1(OC(C)=O)CO[C@@H]1C[C@@H]2O + CN1CCN(c2cc(C(=O)Nc3cc4cc(-c5cnn(C)c5)ccc4cn3)ccn2)CC1 stay below 70%?
Yes

Does the reported viability, T/C of CC1COCCN1c1cc(C2(S(C)(=N)=O)CC2)nc(-c2ccnc3[nH]ccc23)n1 (configuration not stated) + CNC(=O)c1ccc(Nc2nc(OC3CCCC3)c3c(-c4ccc5nc(C)oc5c4)c[nH]c3n2)c(OC)c1 stay below 70%?
No
